All figures here come from PubChem BioAssay (Tox21).

Test: qHTS assay to identify small molecule that activate the aryl hydrocarbon receptor (AhR) signaling pathway - cell viability counter screen (AID 743086); note: nearly all actives have a fitted effect of over 45% in size
Settings: HepG2-AhR-luc viability, CellTiter-Fluor, 24 h; series mostly up to 70.3 µM
Text: U.S. Tox21 Program National Center for Advancing Translational Sciences [NCATS] NIH Chemical Genomics Center [NCGC] U.S. Environmental Protection Agency [EPA] National Institutes of Environmental Health Sciences [NIEHS] National Toxicology Program [NTP] U.S. Food and Drug Administration [FDA] Tox21 Assay overview: The Aryl hydrocarbon Receptor (AhR), a member of the family of basic helix-loop-helix transcription factors, is crucial to adaptive responses to environmental changes. […]
Results filed as inconclusive are left out. Activity calls are given as the source filed them. Calls come from the whole dose curve; as a rule, active = well fitted cell-killing curve with a large enough effect in the repeat runs; inconclusive = weak or mixed curves, or effect the other way; inactive = flat fitted curve, though single readings scatter.
Hi! Could you answer with just one of these? YES for active, NO for inactive

Prompt line: Per the assay record, what outcome was assigned to COc1cc(C[C@H](C)N)c(OC)cc1Br ?
Response line: NO

Prompt line: Request: CN1C2CCC1CC(OC(c1ccccc1)c1ccc(Cl)cc1)C2 (stereo unspecified)
Response line: YES

Prompt line: Another molecule to check: CC(=O)O[C@H]1C[C@H](O[C@H]2[C@@H](O)C[C@H](O[C@H]3[C@@H](O)C[C@H](OC4CC[C@@]5(C)C(CC[C@@H]6[C@@H]5CC[C@]5(C)[C@@H](C7=CC(=O)OC7)[C@@H](O)C[C@]65O)C4)O[C@@H]3C)O[C@@H]2C)O[C@H](C)[C@H]1O[C@@H]1O[C@H](CO)[C@@H](O)[C@H](O)[C@H]1O (stereo partly specified)
Response line: NO

Next:
Prompt line: I'd appreciate the recorded outcome for C[C@]12CC[C@H]3[C@@H](CCC4=CC(=O)CC[C@@]43C)[C@@H]1CC[C@@H]2OC(=O)CCc1ccccc1 from this test.
Response line: NO

Prompt line: Check Clc1ccc([C@@H]2C[C@H]3CC[C@@H]2N3)cn1 too.
Response line: NO

Prompt line: What about C#C[C@]1(OC(=O)CCCCCC)CC[C@H]2[C@@H]3CCC4=CC(=O)CC[C@@H]4[C@H]3CC[C@@]21C ?
Response line: NO
